Tested on: A2058
ASSAY EXPLANATION: Cytotoxicity against human A2058 cells
Type: functional, cell-based
pIC50: −log10 of the molar value.
READOUT LABEL: pIC50

Example entries and their recorded answers appear below.
1) C=CCc1ccc(Oc2cc(CC=C)cc(OC)c2Oc2ccccc2)c(OC)c1 : < 4.00
2) CCCS(=O)(=O)Nc1ccc(F)c(C(=O)c2c[nH]c3ncc(-c4ccc(Cl)cc4)cc23)c1F [VEMURAFENIB] : 5.06
3) COc1cc(CC(C)O)ccc1Oc1cc(CC(C)O)cc(OC)c1OCC(C)O (centres undefined) : < 4.00

The reported value for C=CCc1ccc(Oc2cc(C(O)C=C)cc(OC)c2O)c(OC)c1 (centres undefined) in terms of pIC50 is < 4.00

Entry "CCCOc1c(OC)cc(CCC)cc1Oc1ccc(CCC)cc1OC" — recorded pIC50 = 4.28

For this compound ( "C=CCc1ccc(Oc2cc(C(=O)C=C)cc(OC)c2OC)c(OC)c1" ), measured pIC50 is < 4.00

Item: "C=CCc1ccc(Oc2cc(C(=O)C=C)cc(OC)c2O)c(OC)c1" | pIC50: 4.07

Record C=CCc1ccc(Oc2cc(C(O)C=C)cc(OC)c2OC)c(OC)c1 (centres undefined) . Reported pIC50: < 4.00

So, CCC(O)Oc1c(OC)cc(C(O)CC)cc1Oc1ccc(C(O)CC)cc1OC (centres undefined) ? Its pIC50 was < 4.00

Data point: "COc1cc(CCCO)ccc1Oc1cc(CCCO)cc(OC)c1OCCCO" ; pIC50 = < 4.00

====

ASSAY EXPLANATION: Selectivity index, ratio for IC50 for human T75 cells to IC50 for human A2058 cells
READOUT LABEL: Ratio IC50

1) COc1cc(C=O)ccc1Oc1cc(C=O)cc(OC)c1OC=O : >1.6
2) CCCS(=O)(=O)Nc1ccc(F)c(C(=O)c2c[nH]c3ncc(-c4ccc(Cl)cc4)cc23)c1F : >11.5
3) C=CCc1ccc(Oc2cc(C(=O)C=C)cc(OC)c2O)c(OC)c1 : >1.2

From here, focus on the item given below.
Ratio IC50 recorded for this molecule, "CCCOc1c(OC)cc(CCC)cc1Oc1ccc(CCC)cc1OC" , is >1.9

====

Tested on: B16-F10
ASSAY EXPLANATION: Cytotoxicity against mouse B16-F10 cells
Format: functional, cell-based
READOUT LABEL: IC50

// solved cases for IC50 follow
1) CCCc1ccc(Oc2cc(CCC)cc(OC)c2Oc2ccccc2)c(OC)c1 : > 100 µM
2) C=CCc1ccc(Oc2cc(C(=O)C=C)cc(OC)c2OC)c(OC)c1 : > 100 µM
3) C=CCc1ccc(Oc2cc(CC=C)cc(OC)c2Oc2ccccc2)c(OC)c1 : > 100 µM

Per the records, this molecule ( CCC(O)Oc1c(OC)cc(C(O)CC)cc1Oc1ccc(C(O)CC)cc1OC (stereo not drawn) ) has IC50 equal to > 100 µM

# molecule "COc1cc(CCCO)ccc1Oc1cc(CCCO)cc(OC)c1OCCCO" ; its IC50 = > 100 µM

For C=CCc1ccc(Oc2cc(C(O)C=C)cc(OC)c2OC)c(OC)c1 (stereo not drawn) the molecule record lists IC50 as 90.3 µM

Lab note: COc1cc(CC(C)O)ccc1Oc1cc(CC(C)O)cc(OC)c1OCC(C)O (stereo not drawn) gave IC50 of > 100 µM

Record "COc1cc(C=O)ccc1Oc1cc(C=O)cc(OC)c1OC=O" . Reported IC50: 80.2 µM

IC50 reported for this molecule "CCCOc1c(OC)cc(CCC)cc1Oc1ccc(CCC)cc1OC" : 79 µM

Documented IC50 of C=CCc1ccc(Oc2cc(C(O)C=C)cc(OC)c2O)c(OC)c1 (stereo not drawn) : > 100 µM

Entry "COc1cc(CC(C)=O)ccc1Oc1cc(CC(C)=O)cc(OC)c1OCC(C)=O" ; IC50 = > 100 µM

Entry under test: "C=CCc1ccc(Oc2cc(C(=O)C=C)cc(OC)c2O)c(OC)c1" . Its IC50 was 82.2 µM

Memo: "CCCc1ccc(Oc2cc(CCC)cc(OC)c2OC)c(OC)c1" , reported IC50: > 100 µM

Sourced from ChEMBL document CHEMBL4725273
